Experimental System: Glycogen synthase kinase-3 beta (Homo sapiens)
Sequence (P49841 whole entry): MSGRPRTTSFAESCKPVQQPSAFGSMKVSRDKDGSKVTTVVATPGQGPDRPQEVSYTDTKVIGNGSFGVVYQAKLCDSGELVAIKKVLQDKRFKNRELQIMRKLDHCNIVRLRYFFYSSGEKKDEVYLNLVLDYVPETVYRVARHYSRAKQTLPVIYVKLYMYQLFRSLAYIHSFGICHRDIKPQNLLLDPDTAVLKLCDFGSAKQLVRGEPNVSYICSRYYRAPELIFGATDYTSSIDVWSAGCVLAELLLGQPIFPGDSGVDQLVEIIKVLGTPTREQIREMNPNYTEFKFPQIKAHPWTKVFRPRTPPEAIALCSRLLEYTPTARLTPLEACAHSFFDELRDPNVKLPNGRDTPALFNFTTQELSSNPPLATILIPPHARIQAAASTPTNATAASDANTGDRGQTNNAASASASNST
Hi! Just check whether IC50 is below 700 nM. Below gives yes, equal or above gives no.

[
  {
    "Cpd Smiles": "Cn1c(SCc2cn(-c3ccccc3Cl)nn2)nc(-c2ccccc2)cc1=O",
    "Category": "yes"
  },
  {
    "Cpd Smiles": "Cn1c(SCc2cn(-c3ccc(Br)cc3)nn2)nc(-c2ccccc2)cc1=O",
    "Category": "no"
  },
  {
    "Cpd Smiles": "Cn1c(SCc2cn(-c3ccccc3Br)nn2)nc(-c2ccccc2)cc1=O",
    "Category": "yes"
  },
  {
    "Cpd Smiles": "CCOc1ccc(-n2cc(CSc3nc(-c4ccccc4)cc(=O)n3C)nn2)cc1",
    "Category": "no"
  },
  {
    "Cpd Smiles": "Cn1c(SCc2cn(-c3ccc(Cl)cc3)nn2)nc(-c2ccccc2)cc1=O",
    "Category": "no"
  }
]

Where these numbers come from: BindingDB's records for doi:10.1016/j.bioorg.2016.07.007
